- tgt: human glucagon receptor (human, UniProt P47871 26-477)
- Sequence (P47871 26-477): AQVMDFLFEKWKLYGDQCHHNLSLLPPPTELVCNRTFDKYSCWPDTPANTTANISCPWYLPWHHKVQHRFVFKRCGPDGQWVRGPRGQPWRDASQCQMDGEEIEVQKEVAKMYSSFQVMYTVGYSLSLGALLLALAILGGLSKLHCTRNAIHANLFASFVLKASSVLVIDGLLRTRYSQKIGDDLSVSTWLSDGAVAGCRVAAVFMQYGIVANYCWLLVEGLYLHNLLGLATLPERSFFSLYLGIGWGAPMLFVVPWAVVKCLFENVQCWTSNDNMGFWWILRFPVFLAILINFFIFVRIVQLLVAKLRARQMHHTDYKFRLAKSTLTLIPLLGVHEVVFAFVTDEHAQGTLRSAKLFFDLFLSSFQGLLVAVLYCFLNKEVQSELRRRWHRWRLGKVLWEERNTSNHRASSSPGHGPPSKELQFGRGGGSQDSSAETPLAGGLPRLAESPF
- assay.details: cell-based or functional assay
Square brackets hold non-standard residues; d marks the D form. Ends that are not written are not given here. PhLac = O=C(O)[C@@H](O)Cc1ccccc1
experimental.endpoint: IC50 (cAMP, inhibit 0.2 mM Glucagon) (nM)

binder="C(PEG 3.4 kDa)FTSEYSKYLDSRRAQDFVQWLMNT-NH2 (also: dimer: Cys5 of two chains joined by 3.4 kDa PEG) [3.4kDaPEG-dimer[C^5, E^9]Glucagon(aa5-29)-NH2]" numeric_readout=1340
binder="C(PEG 20 kDa)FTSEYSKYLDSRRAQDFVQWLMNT-NH2 [[C^5(20kDaPEG), E^9]Glucagon(aa5-29)-NH2]" numeric_readout=976
binder="[PhLac]TSEYC(PEG 20 kDa)KYLDSRRAQDFVQWLMNT-NH2 [[PLA^6, E^9, C^11(20kDaPEG)]Glucagon(aa6-29)-NH2]" numeric_readout=664
